The reported measurements were obtained from patent US20240067693A1.

biological target: human amylin receptor (calcitonin receptor co-expressed with receptor activity modifying protein, RAMP3) (hAMYR3) (Homo sapiens, UniProt O60896+P30988); construct: expressed in transfected cells; assay: cAMP production in 1321N1 cells with stable recombinant expression of human amylin receptor (hAMYR3); format: cell-based; conditions: cAMP, 1321N1 cells, assay buffer with 0.1% BSA; read-out: EC50 (pM) hAMYR3
Sequence (P30988 25-474): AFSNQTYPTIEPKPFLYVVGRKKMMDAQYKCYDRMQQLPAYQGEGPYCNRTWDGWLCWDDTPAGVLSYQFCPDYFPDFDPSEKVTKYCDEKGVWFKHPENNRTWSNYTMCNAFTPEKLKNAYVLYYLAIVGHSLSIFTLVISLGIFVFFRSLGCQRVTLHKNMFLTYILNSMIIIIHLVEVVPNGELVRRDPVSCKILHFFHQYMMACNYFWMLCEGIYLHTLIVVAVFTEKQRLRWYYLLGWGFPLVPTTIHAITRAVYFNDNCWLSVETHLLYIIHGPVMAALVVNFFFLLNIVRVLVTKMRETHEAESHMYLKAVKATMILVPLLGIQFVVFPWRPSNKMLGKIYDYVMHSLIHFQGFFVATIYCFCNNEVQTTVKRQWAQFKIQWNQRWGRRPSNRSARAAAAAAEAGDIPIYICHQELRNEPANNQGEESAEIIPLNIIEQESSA
Sequence (O60896 24-148 partner): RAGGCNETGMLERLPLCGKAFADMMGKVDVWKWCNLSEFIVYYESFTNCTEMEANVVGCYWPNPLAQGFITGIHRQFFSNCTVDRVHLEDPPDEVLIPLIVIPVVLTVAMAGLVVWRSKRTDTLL
Numbered stars: 1 amine (or outer) side, 2 acyl side, 3 side chain; on linkers, the order of the positions; unused ones are H or OH. Bridge positions count the residues as written; N and C are the ends. Side chains are listed from the residue outwards. * marks the point of attachment. C18 diacid = O=C(O)CCCCCCCCCCCCCCCCC(=O)*; γGlu = O=C(O)[C@H](CCC(=O)[*:2])N[*:1]; AEEA = NCCOCCOCC(=O)O
reported endpoint: EC50 (pM)

> print(dat)
                                  substance  reported.endpoint  quantitative.readout
1  H-K([AEEA-AEEA-γGlu-C18 diacid])GGGKCNTATCATQRLANFLVHSSNNFGPILPPTNVGSNTY-NH2 (disulfide 6-11) [Peptide 7]               EC50                   173
